pIC50 tested on Prostaglandin G/H synthase 2 (Homo sapiens): recorded values
For clarity, pIC50 is expressed as the negative log10 of concentration in mol/L.

### Prompt // lookup pIC50 | system=Prostaglandin G/H synthase 2 (Homo sapiens) | key= `C[C@H]1[C@H](C)CC[C@]2(C(=O)O)CC[C@]3(C)C(=CC[C@@H]4[C@@]5(C)CC[C@H](O)C(C)(C)[C@@H]5CC[C@]43C)[C@H]12`
### Response 4.07

### Prompt Field entry: `c1ccc(-c2ccc(-c3ccccc3)cc2)cc1`
### Response 3.84

* * *

Biological target: Prostaglandin G/H synthase 2 (Homo sapiens, UniProt P35354)
Sequence (P35354 whole entry): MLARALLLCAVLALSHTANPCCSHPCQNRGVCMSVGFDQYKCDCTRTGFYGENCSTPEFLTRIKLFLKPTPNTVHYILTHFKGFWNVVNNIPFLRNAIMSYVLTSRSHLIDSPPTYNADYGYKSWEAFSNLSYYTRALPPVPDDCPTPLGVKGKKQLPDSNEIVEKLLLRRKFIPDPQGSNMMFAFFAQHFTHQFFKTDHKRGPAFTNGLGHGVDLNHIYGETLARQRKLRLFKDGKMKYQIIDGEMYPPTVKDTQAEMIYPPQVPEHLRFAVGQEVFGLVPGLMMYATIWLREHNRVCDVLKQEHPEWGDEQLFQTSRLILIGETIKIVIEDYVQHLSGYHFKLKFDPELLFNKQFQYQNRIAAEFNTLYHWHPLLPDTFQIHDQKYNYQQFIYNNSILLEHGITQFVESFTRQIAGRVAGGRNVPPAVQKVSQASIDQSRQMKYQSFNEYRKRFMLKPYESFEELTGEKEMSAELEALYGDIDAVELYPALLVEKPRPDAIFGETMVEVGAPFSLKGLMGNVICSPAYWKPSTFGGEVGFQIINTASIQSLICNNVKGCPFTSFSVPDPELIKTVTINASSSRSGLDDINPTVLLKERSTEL
Test: Inhibition of COX2
assay-readout: IC50

### Prompt // lookup IC50 | system=Prostaglandin G/H synthase 2 (Homo sapiens, UniProt P35354) | key= `O=c1cc(-c2ccc(O)c(O)c2)oc2cc(O)cc(O)c12`
### Response < 349 µM
